- Assay text: chemical genetic growth profiling, strain panel (AID 1159580);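 also: tested at 20 µM; growth read once vehicle control cultures reached saturation at 30 °C; 1 = growth at the plate median or of vehicle wells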
- Stated conditions: S. cerevisiae deletion strains, growth OD, locus YDR335W, strain msn5, stronger effect = lower value
Screen size: about 5,500 compounds; about 2,000 (36%) were called active. About 18% were inconclusive and are not listed. The list shows a part of the results.
Reported endpoint: normalized growth

>>> meas_value("C/C=C(/C)C(=O)O[C@@H]1[C@H](OC(C)=O)[C@@]2(CO)C(CC1(C)C)C1=CCC3[C@@]4(C)CC[C@H](O[C@@H]5O[C@H](C(=O)O)[C@@H](O[C@@H]6O[C@H](CO)[C@@H](O)[C@H](O)[C@H]6O)[C@H](O)[C@H]5O[C@@H]5O[C@H](CO)[C@@H](O)[C@H](O)[C@H]5O)[C@](C)(CO)C4CC[C@@]3(C)[C@]1(C)C[C@H]2O (some centres not stated)")
"0.989 (inactive)"

Would you kindly look at the next entry?
Prompt: I am curious: what normalized growth value has been reported for CC1(C)CC[C@@]2(C(=O)O)C(C1)C1=CCC3[C@@]4(C)CC[C@H](O)C(C)(C)C4CC[C@@]3(C)[C@]1(C)C[C@@H]2O (some centres not stated) ?
Response: 1.02 (inactive)

* * *

- Assay text: chemical genetic growth profiling, strain panel (AID 1159580);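 also: tested at 20 µM; growth read once vehicle control cultures reached saturation at 30 °C; 1 = growth at the plate median or of vehicle wells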
- Stated conditions: S. cerevisiae deletion strains, growth OD, locus YOR001W, strain rrp6
In all, about 5,500 compounds went through this assay and about 2,000 (36%) were called active. About 18% were inconclusive and are not listed. No stated cut-off is given here; in the data, active means normalized growth mostly below about 0.91 (no sharp cut-off); inconclusive means no clear call, values can overlap the other calls; inactive means mostly above about 0.92. The list shows a part of the results.
// classify into t (active), f (inactive)

Use the examples below as a reference point.
>>> discrete_label("CC(C)CC(N(C)C)C1(c2ccc(Cl)cc2)CCC1 (configuration not stated)")
"f"
>>> discrete_label("Nc1c2ccccc2nc2ccccc12 (tested in a mixture with another compound)")
"t"
>>> discrete_label("Nc1ccc(S(=O)(=O)Nc2ccnn2-c2ccccc2)cc1")
"f"
>>> discrete_label("OC(CCN1CCCCC1)(c1ccccc1)C1CCCCC1 (configuration not stated)")
"f"
>>> discrete_label("O=C1c2c(O)cccc2Cc2cccc(O)c21")
"f"

Prompt: Check the results log: what was the call for Nc1c2c(nc3ccccc13)CCCC2 ?
Response: f

Prompt: I would be grateful if you could indicate the recorded call for CC(=O)NC(C(=O)O)C(C)(C)SN=O (configuration not stated) .
Response: f

Prompt: Status in this test for NC(Cc1c[nH]c2ccccc12)C(=O)O (configuration not stated) ?
Response: f

Prompt: Hi, do you know how CC(=O)NCc1c(I)c(NC(C)=O)c(I)c(C(=O)O)c1I came out in this test?
Response: f

Prompt: What call does the record list for O=c1ccc2ccc(O)cc2o1 ?
Response: f

Prompt: Per the records of this test, what outcome belongs to CC(C)(C#N)O[C@@H]1O[C@H](CO)[C@@H](O)[C@H](O)[C@H]1O ?
Response: f

Prompt: Call for entry COc1ccc2c3c([nH]c2c1)C(C)=NCC3 :
Response: f

* * *

The following compounds are listed with their measured normalized growth values.
- Assay text: chemical genetic growth profiling, strain panel (AID 1159580);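 also: tested at 20 µM; growth read once vehicle control cultures reached saturation at 30 °C; 1 = growth at the plate median or of vehicle wells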
- Stated conditions: S. cerevisiae deletion strains, growth OD, locus YAL026C, strain drs2, stronger effect = lower value
Screen size: about 5,500 compounds; about 2,000 (36%) were called active. Not shown: some 18% with an inconclusive outcome. The list shows a part of the results.
// print number alone

Worked examples, 5 compounds total:
>>> meas_value("CC1OC(=O)C(C(C)C)NC(=O)C(C(C)C)OC(=O)C(C(C)C)NC(=O)C(C)OC(=O)C(C(C)C)NC(=O)C(C(C)C)OC(=O)C(C(C)C)NC(=O)C(C)OC(=O)C(C(C)C)NC(=O)C(C(C)C)OC(=O)C(C(C)C)NC1=O (stereo not drawn)")
0.544
>>> meas_value("C/C=C1\\[C@H]2C=C(C)C[C@]1(N)c1ccc(=O)[nH]c1C2")
1.03
>>> meas_value("C/C=C(/C)C(=O)OC1CCC2(C)C3CCC4C5(O)CC(O)C6(O)C(CN7CC(C)CCC7C6(C)O)C5(O)CC42OC13O (stereo not drawn)")
0.954
>>> meas_value("COC(=O)C[C@H]1C(C)(C)C2(O)OC34CC2C(=O)[C@]1(C)C3CC[C@]1(C)C4=CC(=O)O[C@H]1c1ccoc1 (stereo partly drawn)")
0.998
>>> meas_value("Cc1cc(O)cc(C)c1Cl")
0.831

Prompt: For CC(C)=CCCC1(C)C=Cc2c(O)c3c(c(CC=C(C)C)c2O1)OC12C(=CCCC1C(C)(C)O[C@@]2(C/C=C(\C)C(=O)O)C(=O)O)C3=O (stereo partly drawn) , what is its reported normalized growth?
Response: 0.813

Prompt: For the compound CC(=O)NC(C(=O)O)C(C)(C)SN=O (stereo not drawn) , what normalized growth is on record?
Response: 0.992

Prompt: I would be grateful if you could share the reported normalized growth for CC(C)=CCCC1(C)C=Cc2c(O)c3c(c(CC=C(C)C)c2O1)OC12C(=CC4CC1C(C)(C)OC2(C/C=C(/C)C(=O)O)C4=O)C3=O (stereo not drawn) .
Response: 0.895

Data provenance: PubChem BioAssay AID1159580
